Each recorded value in this set is attributed to ChEMBL document CHEMBL1201862.

system: SNB-75; assay: NCI tumour cell line growth inhibition, 48 h
Active and inactive are the calls of the source. Cut-off read from the data, not from the text of the source: active = GI50 up to about 1.1 µM and inactive = higher.
Give GI50 for every item shown.

[[record]]
molecule = "O=c1c(NO)c([N+](=O)[O-])cnn1-c1ccccc1"
value_measured = "14.6 µM (inactive)"

[[record]]
molecule = "NC(=O)c1ncn2c1NC(=O)CC2"
value_measured = "> 100 µM (inactive)"

[[record]]
molecule = "C=C1C(=O)OC2/C=C(/C)C(OC(C)=O)C/C=C(\\C)C(OC(=O)C3(C)OC3C)C(O)C12 (stereo not given)"
value_measured = "97.7 µM (inactive)"


Batch: GI50 for all items listed.
1. CO[C@H]1[C@@H](O)[C@H](O[C@@H]2C[C@H]3CC[C@@H]4[C@H](CC[C@]5(C)[C@@H](C6=CC(=O)OC6)CC[C@]45O)[C@@]3(C)[C@H](OC(C)=O)C2)O[C@@H](C)[C@H]1O
2. NS(=O)(=O)c1cc2c(cc1Cl)NC(C(=O)NNC(=O)c1ccncc1)=NS2(=O)=O
3. O=C1/C(=C/c2ccccc2)NC(=S)N1CN1CCOCC1
4. CC(C)=CC(=O)Cc1nc2ccc([N+](=O)[O-])cc2[nH]c1=O

3.61 µM (inactive)
> 100 µM (inactive)
> 100 µM (inactive)
18.5 µM (inactive)

Batch: GI50 for all items listed.
1. CSCCC(N)P(C)(=O)O (stereo not given)
2. O=C1c2ccccc2C(=O)N1n1c(Cc2ccc([N+](=O)[O-])cc2)n[nH]c1=O
3. N=C(N)SCc1ccc2c(c1)S(=O)(=O)c1ccccc1O2

1. > 100 µM (inactive)
2. > 100 µM (inactive)
3. 14.6 µM (inactive)

====

test system: M14; experiment: NCI tumour cell line growth inhibition, 48 h
Active and inactive are the calls of the source. No stated cut-off is given here; in the data, active = GI50 up to about 1.1 µM and inactive = higher.
Give GI50 for every item shown.

[[record]]
molecule = "Cc1cc(S(=O)(=O)Nc2n[nH]c(-c3ccc(Cl)cn3)n2)c(S)cc1Cl"
value_measured = "76.6 µM (inactive)"

[[record]]
molecule = "O=C1OC(c2ccc(Cl)cc2)=N/C1=C\\c1ccccc1"
value_measured = "> 100 µM (inactive)"

[[record]]
molecule = "CCOC(=N)CC(=O)Nc1ccccc1CC"
value_measured = "> 100 µM (inactive)"

[[record]]
molecule = "O=C(COc1ccc(Cl)c(Cl)c1)Nc1ccc[n+](Cc2ccc(S(=O)(=O)F)c(Cl)c2)c1"
value_measured = "> 100 µM (inactive)"

[[record]]
molecule = "O=C1NC(=S)NC(=O)C1=C/C=C/c1ccc([N+](=O)[O-])cc1"
value_measured = "15 µM (inactive)"


Batch: GI50 for all items listed.
1. Nc1nc(N)c2ncn(Cc3ccccc3CCl)c2n1
2. Cc1cc2[nH]c3c(C#N)c(-c4ccccc4)c(/C=N/c4cccc(C(F)(F)F)c4)c(=O)n3c2cc1C
3. CCCCCC1=CC(=O)C1(Cl)Cl
4. O=c1c(NO)c([N+](=O)[O-])cnn1-c1ccccc1

> 100 µM (inactive)
> 100 µM (inactive)
18.4 µM (inactive)
1.99 µM (inactive)

Batch: GI50 for all items listed.
1. Cc1cc(N(CCC#N)CCC#N)ccc1C(/N=N/c1ccccc1)=N\NC(=O)c1cc(Cl)ccc1O
2. O=C1C2ON3c4ccccc4C(=O)C3(c3ccccc3)C2C(=O)N1c1ccccc1 (stereo unspecified)
3. O=C(O)c1cc2ccccc2oc1=O
4. Cc1cc(S(=O)(=O)Nc2nc3cscc3c(=O)n2N)c(S)cc1Cl
5. CC(C)SC(C)(NC(=O)C1C(C)(C)CCC1(C)C)C(=O)O (stereo unspecified)

1. 26.4 µM (inactive)
2. > 100 µM (inactive)
3. > 100 µM (inactive)
4. 31.9 µM (inactive)
5. > 100 µM (inactive)

Batch: GI50 for all items listed.
1. O=CN1CCC23CC(O)CCC2C1Cc1cc(Oc2nnnn2-c2ccccc2)cc(O)c13 (stereo unspecified)
2. CC(Oc1ccccc1Cl)C(=O)NN1C(=O)CSC1c1ccc(Cl)cc1 (stereo unspecified)
3. CCN(CC)CCCNc1ccc([N+](=O)[O-])c2nc3ccc(OC)cc3c(N)c12

1. > 100 µM (inactive)
2. 18.4 µM (inactive)
3. > 4.41 µM (inactive)
